- target.of.assay: KDM5B
- assay.details: inhibition of recombinant KDM5 demethylase activity (H3K4me3 peptide); legend calls it IC50
pEC50: −log10 of the molar value. Where no end group is shown, it is not given here.

binder: TEDSKTHHH (also: fluorescein label in FP assay, end not given here) [EP4]
pEC50: 6.42
